Each recorded value in this set is attributed to patent US20240101576A1.

molecular target: EGFR exon 20 FQEA Ins A763_V764 (Ba/F3 cells) (Homo sapiens, UniProt P00533, INS763FQEA); construct: expressed in transfected cells; host or cells: Ba/F3 (murine pro-B cells), retroviral transduction, puromycin selection, IL3-independent pool; experiment: Inhibitor activity on EGFR-dependent cell growth (CellTiter-Glo, 72 h), Ba/F3 EGFR exon 20 FQEA Ins; format: cell-based; settings: read-out: BaF3 FQEA IC50
Sequence (P00533 with tags, fused parts or gaps INS763FQEA): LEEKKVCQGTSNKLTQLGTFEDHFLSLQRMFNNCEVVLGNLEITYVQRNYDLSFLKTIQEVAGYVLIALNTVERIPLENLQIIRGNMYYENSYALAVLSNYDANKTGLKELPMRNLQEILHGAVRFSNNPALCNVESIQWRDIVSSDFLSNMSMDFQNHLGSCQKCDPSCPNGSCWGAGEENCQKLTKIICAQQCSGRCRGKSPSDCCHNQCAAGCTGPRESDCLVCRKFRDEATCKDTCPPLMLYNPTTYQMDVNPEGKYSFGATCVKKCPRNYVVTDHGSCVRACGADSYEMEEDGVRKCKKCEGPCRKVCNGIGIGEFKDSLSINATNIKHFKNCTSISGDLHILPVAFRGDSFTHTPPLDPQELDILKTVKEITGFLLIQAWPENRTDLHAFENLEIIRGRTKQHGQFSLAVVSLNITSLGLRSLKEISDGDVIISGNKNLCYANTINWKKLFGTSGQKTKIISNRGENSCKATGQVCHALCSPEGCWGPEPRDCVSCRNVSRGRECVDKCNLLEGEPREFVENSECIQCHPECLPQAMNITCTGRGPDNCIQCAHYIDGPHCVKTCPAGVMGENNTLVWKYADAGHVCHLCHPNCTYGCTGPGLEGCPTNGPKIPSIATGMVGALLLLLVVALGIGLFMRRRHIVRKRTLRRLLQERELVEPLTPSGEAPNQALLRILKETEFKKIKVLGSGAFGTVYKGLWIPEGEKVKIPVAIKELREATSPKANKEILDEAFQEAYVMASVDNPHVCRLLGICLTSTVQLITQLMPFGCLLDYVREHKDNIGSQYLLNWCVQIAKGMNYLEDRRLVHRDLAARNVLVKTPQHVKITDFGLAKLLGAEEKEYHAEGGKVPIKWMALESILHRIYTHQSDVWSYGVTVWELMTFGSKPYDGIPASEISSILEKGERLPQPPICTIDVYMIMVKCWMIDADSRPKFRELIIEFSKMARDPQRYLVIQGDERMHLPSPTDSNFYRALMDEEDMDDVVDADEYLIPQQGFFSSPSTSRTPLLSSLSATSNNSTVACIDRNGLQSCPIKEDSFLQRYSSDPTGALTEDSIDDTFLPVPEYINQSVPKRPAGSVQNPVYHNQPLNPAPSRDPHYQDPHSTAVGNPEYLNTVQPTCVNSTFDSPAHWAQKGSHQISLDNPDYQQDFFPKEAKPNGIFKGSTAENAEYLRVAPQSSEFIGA
pIC50: −log10 of the molar value.
Readout: pIC50

Sample records with pIC50:
For COCC[C@H]1CNC(=O)c2c1[nH]c(-c1ccncc1F)c2Nc1cccc(F)c1C [compound 824] , what is its reported pIC50?
6.00 to 7.00

Now the molecule C#Cc1cccc(Nc2c(-c3ccnc(N)n3)[nH]c3c2C(=O)NCC3)c1OC [Compound 703]
< 6.00

Same question, CCOc1ccc2nccc(-c3[nH]c4c(c3Nc3cccc(Cl)c3OC)C(=O)NCC4)c2n1 [compound 761] this time
> 7.00

What do we get for COCCC1(C)CNC(=O)c2c1[nH]c(-c1ccncc1F)c2Nc1cccc(Cl)c1OC (single isomer, unassigned) [Compound 779] ?
> 7.00

Likewise for COc1c(F)cccc1Nc1c(-c2ccnc(C)c2)[nH]c2c1C(=O)NCC2 [compound 261] ?
< 6.00

More entries:
Reported pIC50, molecule COc1c(Cl)cccc1Nc1c(-c2ccnc(N)n2)[nH]c2c1C(=O)NCC2 [Compound 148] : ____
6.00 to 7.00

Then what about the molecule COc1c(Cl)cccc1Nc1c(-c2ccnc(N)c2)[nH]c2c1C(=O)NCC2 [compound 285] ?
6.00 to 7.00

Next: COc1c(Cl)cccc1Nc1c(-c2nc(N)ncc2F)[nH]c2c1C(=O)NCC2 [compound 295]
6.00 to 7.00

How about this molecule: COCC[C@@H]1CNC(=O)c2c1[nH]c(-c1ccncc1F)c2Nc1cccc(F)c1C [compound 823]
> 7.00

Subsequent entry: COc1c(F)cccc1Nc1c(-c2ccnc3ccc(NC4(C)CC4)nc23)[nH]c2c1C(=O)NCC2 [Compound 695, formic acid]
> 7.00

Then what about the molecule COc1c(F)cccc1Nc1c(-c2ccnc(N)c2F)[nH]c2c1C(=O)NCC2 [Compound 687] ?
6.00 to 7.00

Consider next the molecule COc1c(Cl)cccc1Nc1c(-c2ccnc3ccc(OC[C@@H]4CCO4)nc23)[nH]c2c1C(=O)NCC2 [compound 735] in the same way.
> 7.00

# repeat for COc1c(F)cccc1Nc1c(-c2ccncc2F)[nH]c2c1C(=O)NC[C@@H]2CC1COC1 [469b]
< 6.00

Note, next up: COc1c(Cl)cccc1Nc1c(-c2ccncc2F)[nH]c2c1C(=O)NCC2CCF (stereo not drawn) [Compound 473]
6.00 to 7.00

Now consider COc1c(Cl)cccc1Nc1c(-c2ccnc(Nc3cnn(C)c3)n2)[nH]c2c1C(=O)NCC2 [compound 109] and answer again.
> 7.00

Now the same for COc1c(Cl)cccc1Nc1c(-c2ccncc2F)[nH]c2c1C(=O)NCC21COC1 [Compound 748]
6.00 to 7.00

Same question, COc1c(Cl)cccc1Nc1c(-c2ccnc(Nc3ccn(CC(F)F)n3)n2)[nH]c2c1C(=O)NCC2 [compound 515] this time
> 7.00

====

target: EGFR WT (Ba/F3 cells) (Homo sapiens, UniProt P00533); test: Inhibitor activity on EGFR-dependent cell growth (CellTiter-Glo, 72 h), Ba/F3 EGFR WT; conditions: read-out: BaF3 WT IC50
Sequence (P00533 25-1210): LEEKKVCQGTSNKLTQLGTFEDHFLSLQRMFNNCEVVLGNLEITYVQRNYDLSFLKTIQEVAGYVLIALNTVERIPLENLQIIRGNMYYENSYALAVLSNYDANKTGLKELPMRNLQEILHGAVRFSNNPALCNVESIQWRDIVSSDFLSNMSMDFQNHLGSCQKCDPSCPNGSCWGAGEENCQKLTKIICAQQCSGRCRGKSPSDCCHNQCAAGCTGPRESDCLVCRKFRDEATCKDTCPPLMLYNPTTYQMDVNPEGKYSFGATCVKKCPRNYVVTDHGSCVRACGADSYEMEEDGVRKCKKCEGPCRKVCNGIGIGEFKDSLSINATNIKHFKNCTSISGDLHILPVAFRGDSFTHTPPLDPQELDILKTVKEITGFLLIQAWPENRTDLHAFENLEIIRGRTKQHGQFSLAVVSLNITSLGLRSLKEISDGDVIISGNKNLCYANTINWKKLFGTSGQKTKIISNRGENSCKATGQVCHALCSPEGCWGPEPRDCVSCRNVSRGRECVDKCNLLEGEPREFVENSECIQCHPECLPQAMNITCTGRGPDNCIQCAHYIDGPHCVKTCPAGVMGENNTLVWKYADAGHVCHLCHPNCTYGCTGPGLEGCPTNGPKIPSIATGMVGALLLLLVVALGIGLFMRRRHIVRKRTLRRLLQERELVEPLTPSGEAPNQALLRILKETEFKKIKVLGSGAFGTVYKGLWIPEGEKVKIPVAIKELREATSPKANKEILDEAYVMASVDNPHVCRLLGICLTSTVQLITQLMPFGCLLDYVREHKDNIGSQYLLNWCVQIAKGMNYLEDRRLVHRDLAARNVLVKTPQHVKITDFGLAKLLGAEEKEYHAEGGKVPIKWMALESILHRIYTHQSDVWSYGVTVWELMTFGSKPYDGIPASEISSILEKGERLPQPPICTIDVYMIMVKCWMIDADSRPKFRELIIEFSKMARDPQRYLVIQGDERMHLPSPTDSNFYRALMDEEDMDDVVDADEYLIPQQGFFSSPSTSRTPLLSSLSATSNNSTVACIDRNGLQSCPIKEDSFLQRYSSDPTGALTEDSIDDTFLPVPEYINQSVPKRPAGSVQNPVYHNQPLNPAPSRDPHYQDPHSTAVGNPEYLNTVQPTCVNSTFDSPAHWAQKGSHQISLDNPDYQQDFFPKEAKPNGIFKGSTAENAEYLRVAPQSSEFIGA
pIC50: −log10 of the molar value.
Readout: pIC50

Would you kindly share the measured pIC50 for `COc1c(Cl)cccc1Nc1c(-c2ccnc3ccc(OC4CC4)nc23)[nH]c2c1C(=O)NC[C@H]2C` ?
> 7.00

Next:
Fill in the blank: the reported pIC50 of COCC[C@H]1CNC(=O)c2c1[nH]c(-c1ccnc(C)n1)c2Nc1cccc(Cl)c1OC [463b] is ____.
6.00 to 7.00

Next up: `C=CC(=O)N1CCC2(CC1)CNC(=O)c1c2[nH]c(-c2ccnc(C)n2)c1Nc1cccc(Cl)c1OC`
> 7.00

====

biological target: EGFR exon 20 ASV Ins V769_D770 (Ba/F3 cells) (Homo sapiens, UniProt P00533, INS769ASV); construct: expressed in transfected cells; host or cells: Ba/F3 (murine pro-B cells), retroviral transduction, puromycin selection, IL3-independent pool; assay: Inhibitor activity on EGFR-dependent cell growth (CellTiter-Glo, 72 h), Ba/F3 EGFR exon 20 ASV Ins; assay type: cell-based; conditions: read-out: BaF3 ASV IC50
Sequence (P00533 with tags, fused parts or gaps INS769ASV): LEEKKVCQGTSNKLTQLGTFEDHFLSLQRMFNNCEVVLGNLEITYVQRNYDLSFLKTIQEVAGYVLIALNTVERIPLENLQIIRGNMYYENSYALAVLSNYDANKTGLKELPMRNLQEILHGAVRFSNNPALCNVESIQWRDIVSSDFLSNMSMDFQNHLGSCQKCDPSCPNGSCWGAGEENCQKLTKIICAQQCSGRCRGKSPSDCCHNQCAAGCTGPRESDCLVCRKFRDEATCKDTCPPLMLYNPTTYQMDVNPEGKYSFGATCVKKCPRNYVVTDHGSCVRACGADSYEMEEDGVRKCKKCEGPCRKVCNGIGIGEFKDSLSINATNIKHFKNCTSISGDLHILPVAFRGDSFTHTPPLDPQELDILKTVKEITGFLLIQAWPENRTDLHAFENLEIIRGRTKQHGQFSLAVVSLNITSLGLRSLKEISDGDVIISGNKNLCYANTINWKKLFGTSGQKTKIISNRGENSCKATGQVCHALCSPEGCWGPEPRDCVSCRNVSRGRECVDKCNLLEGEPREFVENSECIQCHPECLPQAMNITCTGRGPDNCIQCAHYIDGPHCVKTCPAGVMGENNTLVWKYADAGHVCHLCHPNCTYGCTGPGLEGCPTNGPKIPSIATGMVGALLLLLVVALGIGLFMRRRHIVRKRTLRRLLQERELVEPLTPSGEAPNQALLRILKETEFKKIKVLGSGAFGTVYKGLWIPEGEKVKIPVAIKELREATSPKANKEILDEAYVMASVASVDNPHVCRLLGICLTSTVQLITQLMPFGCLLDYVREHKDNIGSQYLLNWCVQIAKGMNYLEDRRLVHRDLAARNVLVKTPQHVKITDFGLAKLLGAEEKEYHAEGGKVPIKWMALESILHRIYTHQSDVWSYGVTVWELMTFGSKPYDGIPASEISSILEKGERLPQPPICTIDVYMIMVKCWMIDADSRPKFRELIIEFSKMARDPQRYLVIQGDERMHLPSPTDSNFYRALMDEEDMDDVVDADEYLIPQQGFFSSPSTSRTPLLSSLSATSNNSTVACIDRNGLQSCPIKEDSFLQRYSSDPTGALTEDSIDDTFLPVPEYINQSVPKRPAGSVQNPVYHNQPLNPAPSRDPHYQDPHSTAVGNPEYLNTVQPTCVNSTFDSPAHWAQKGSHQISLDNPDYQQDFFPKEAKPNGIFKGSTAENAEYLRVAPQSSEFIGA
pIC50: −log10 of the molar value.
Readout: pIC50

Write down the reported pIC50 of `COc1c(Cl)cccc1Nc1c(-c2ccnc(N)n2)[nH]c2c1C(=O)NC[C@H]2C[C@H]1COCCO1` , test system: EGFR exon 20 ASV Ins V769_D770 (Ba/F3 cells) (Homo sapiens, UniProt P00533, INS769ASV).
> 7.00

Item: `COC[C@H]1CNC(=O)c2c1[nH]c(-c1ccnc3ccc(OC)nc13)c2Nc1cccc(Cl)c1OC`
> 7.00

Also `COc1c(Cl)cccc1Nc1c(-c2ccncc2F)[nH]c2c1C(=O)NCC21CCN(C(=O)/C=C/CN(C)C)CC1` , if possible.
6.00 to 7.00

Next:
Observed pIC50 on EGFR exon 20 ASV Ins V769_D770 (Ba/F3 cells) (Homo sapiens, UniProt P00533, INS769ASV) for `C=CC(=O)N1CCC2(CC1)CNC(=O)c1c2[nH]c(-c2ccncc2F)c1Nc1ccc(Cl)c(Cl)c1` , please.
< 6.00

Here is the next compound: `Nc1nccc(-c2[nH]c3c(c2Nc2cc(F)cc(F)c2)C(=O)NCC3)n1`
6.00 to 7.00

Try COc1c(Cl)cccc1Nc1c(-c2ccnc(N)n2)[nH]c2c1C(=O)N[C@H](C)C2 [187b] next.
> 7.00

Again, but for `C=CC(=O)N1CC[C@]2(CNC(=O)c3c2[nH]c(-c2ccncc2F)c3Nc2cccc(Cl)c2OC)C1`
6.00 to 7.00

====

molecular target: EGFR exon 20 SVD Ins D770_N771 (Ba/F3 cells) (Homo sapiens, UniProt P00533, INS770SVD); construct: expressed in transfected cells; host or cells: Ba/F3 (murine pro-B cells), retroviral transduction, puromycin selection, IL3-independent pool; assay: Inhibitor activity on EGFR-dependent cell growth (CellTiter-Glo, 72 h), Ba/F3 EGFR exon 20 SVD Ins; type: cell-based; conditions: read-out: BaF3 SVD IC50
Sequence (P00533 with tags, fused parts or gaps INS770SVD): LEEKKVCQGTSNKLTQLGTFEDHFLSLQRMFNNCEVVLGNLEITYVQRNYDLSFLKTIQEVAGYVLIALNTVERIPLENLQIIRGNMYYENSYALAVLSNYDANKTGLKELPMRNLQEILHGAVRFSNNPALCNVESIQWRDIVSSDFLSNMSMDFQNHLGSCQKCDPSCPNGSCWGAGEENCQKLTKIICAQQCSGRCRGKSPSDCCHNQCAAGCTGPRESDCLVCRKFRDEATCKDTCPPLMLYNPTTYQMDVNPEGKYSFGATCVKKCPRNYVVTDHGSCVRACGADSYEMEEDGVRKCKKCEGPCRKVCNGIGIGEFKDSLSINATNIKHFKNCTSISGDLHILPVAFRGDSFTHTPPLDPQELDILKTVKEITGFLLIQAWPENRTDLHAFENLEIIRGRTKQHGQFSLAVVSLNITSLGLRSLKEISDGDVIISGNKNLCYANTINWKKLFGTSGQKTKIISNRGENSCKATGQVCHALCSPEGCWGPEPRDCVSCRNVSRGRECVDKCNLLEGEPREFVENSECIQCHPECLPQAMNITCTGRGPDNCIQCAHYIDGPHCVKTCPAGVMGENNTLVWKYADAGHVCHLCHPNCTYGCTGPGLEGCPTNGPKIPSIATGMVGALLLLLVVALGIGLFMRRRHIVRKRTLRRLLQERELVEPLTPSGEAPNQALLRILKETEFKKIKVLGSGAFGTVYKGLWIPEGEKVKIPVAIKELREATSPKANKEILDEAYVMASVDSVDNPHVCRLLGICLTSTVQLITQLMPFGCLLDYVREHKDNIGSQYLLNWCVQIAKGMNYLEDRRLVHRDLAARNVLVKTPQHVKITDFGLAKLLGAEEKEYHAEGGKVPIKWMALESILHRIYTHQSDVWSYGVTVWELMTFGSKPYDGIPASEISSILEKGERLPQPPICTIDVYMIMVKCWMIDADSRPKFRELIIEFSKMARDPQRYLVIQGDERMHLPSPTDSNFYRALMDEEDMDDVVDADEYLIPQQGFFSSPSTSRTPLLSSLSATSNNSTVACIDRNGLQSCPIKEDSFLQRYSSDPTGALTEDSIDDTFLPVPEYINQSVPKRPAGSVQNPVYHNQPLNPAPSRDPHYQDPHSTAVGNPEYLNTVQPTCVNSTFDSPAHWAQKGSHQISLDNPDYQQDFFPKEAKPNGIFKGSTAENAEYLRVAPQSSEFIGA
Reported IC50 values for the following compounds.

Sample records with IC50:
Suppose we examine the compound `COc1c(Cl)cccc1Nc1c(-c2ccnc3ccc(O[C@@H]4CCCOC4)nc23)[nH]c2c1C(=O)NCC2` ; what IC50 value has been reported?
< 100 nM

How about this compound: `COc1c(F)cccc1Nc1c(-c2ccncc2)[nH]c2c1C(=O)NCC2`
100 to 1000 nM

Can you handle `COc1ncc2nccc(-c3[nH]c4c(c3Nc3cccc(Cl)c3OC)C(=O)N[C@H](C(F)(F)F)C4)c2n1` next?
100 to 1000 nM

Param item: `COc1c(Cl)cccc1Nc1c(-c2ccncc2F)[nH]c2c1C(=O)NC[C@]21CCN(CC(F)(F)F)C1`
100 to 1000 nM

Can you check `COc1c(Cl)cccc1Nc1c(-c2ccnc(Nc3cnn(CC(F)F)c3)n2)[nH]c2c1C(=O)NCC2` next?
< 100 nM

Further cases:
So what's the measured IC50 for this one? `COc1ccc2nccc(-c3[nH]c4c(c3Nc3cccc(Cl)c3OC)C(=O)NCC43CC3)c2n1`
< 100 nM

What do you get for `COc1c(Cl)cccc1Nc1c(-c2ccnc(Nc3cnn(C4CCOCC4)c3)n2)[nH]c2c1C(=O)NCC2` ?
< 100 nM

====

target: EGFR WT (Ba/F3 cells) (Homo sapiens, UniProt P00533); test: Inhibitor activity on EGFR-dependent cell growth (CellTiter-Glo, 72 h), Ba/F3 EGFR WT; details: read-out: BaF3 WT IC50
Each entry below lists one item and its recorded IC50 value.

Consider the reported IC50 for these compounds:
Look at this compound and give its reported IC50. `COc1c(Cl)cccc1Nc1c(-c2ccnc(Nc3ccn(C)n3)n2)[nH]c2c1C(=O)NCC2`
< 0.1 µM

Let us now turn to `COc1c(Cl)cccc1Nc1c(-c2ccnc3[nH]cnc23)[nH]c2c1C(=O)NCC2`
0.1 to 1 µM

`CC#CC(=O)N1CCC2(CC1)CNC(=O)c1c2[nH]c(-c2ccncc2F)c1Nc1cccc(Cl)c1OC` ?
> 1 µM

Likewise for COc1c(Cl)cccc1Nc1c(-c2ccncc2F)[nH]c2c1C(=O)NCC2C[C@H]1CO[C@H](CN(C)C)CO1 (single isomer, unassigned) [Compound 565] ?
> 1 µM

Same read-out for `COc1c(Cl)cccc1Nc1c(-c2ccnc(-c3ccncn3)n2)[nH]c2c1C(=O)NCC2` ?
> 1 µM

Query `COc1c(Cl)cccc1Nc1c(-c2ccnc(Nc3ccc(N4CCN(C)CC4)nc3)n2)[nH]c2c1C(=O)NCC2` next
0.1 to 1 µM

More entries:
Query: IC50; subject: `COc1c(Cl)cccc1Nc1c(-c2ccnc(NCC(F)(F)F)n2)[nH]c2c1C(=O)NCC2`
> 1 µM

Now give it for `Cc1cc(F)ccc1Nc1c(-c2ccnc(N)n2)[nH]c2c1C(=O)NCC2` too.
> 1 µM
